# assay_procedure: AUC (0 to infinity) in male Sprague-Dawley rat at 10 mg/kg, po measured upto 24 hrs by LC-MS/MS analysis
# Assay type: ADME, organism-based
# study_conditions: in vivo
property_label: AUC(0-inf) (ng·h/mL)
Could you give me the number in ng·h/mL? Just the number is fine.

Problem: Return AUC(0-inf) for the following compound: CC(C)CCNC(=O)c1cccc(-c2ccc3sc(NC(=O)c4ccc(F)cc4)nc3c2)c1
Solution: 12400

* * *

# assay_procedure: MRT (0 to infinity) in male Sprague-Dawley rat at 10 mg/kg, po measured upto 24 hrs by LC-MS/MS analysis
# Type: ADME, organism-based
# study_conditions: in vivo
property_label: MRT inf (h)
Could you give me the number in h? Just the number is fine.

Problem: Return MRT inf for the following compound: CC(C)CCNC(=O)c1cccc(-c2ccc3sc(NC(=O)c4ccc(F)cc4)nc3c2)c1
Solution: 18.7

* * *

# System: NCI-H1975
# assay_procedure: Antiproliferative activity against human NCI-H1975 cells assessed as inhibition of cell proliferation incubated for 72 hrs by MTT assay
# Format: functional, cell-based
# study_conditions: NCI-H1975, 72 h
# pIC50 values compiled below
In textbook form, pIC50 equals minus log to base ten of the concentration in mol/L.

Examples with answers:
| structure_smiles | pIC50 |
| --- | --- |
| CNc1cccc(NC(=O)c2ccc(C)c(C#Cc3cnc4cccnn34)c2)c1 | 4.18 |
| CC(=O)Nc1nc2cc(-c3ccc4ncn(Cc5ccccc5)c(=O)c4c3)ccc2[nH]1 | 5.99 |
| CC(C)CCNC(=O)c1cccc(-c2ccc3sc(NC(=O)c4ccc(F)cc4)nc3c2)c1 | 5.46 |
| CCCNC(=O)c1cccc(-c2ccc3sc(NC(=O)C(C)(C)C)nc3c2)c1 | 5.09 |
| CC(C)CCNC(=O)c1cccc(-c2ccc3sc(NC(=O)C(C)(C)C)nc3c2)c1 | 5.36 |

Okay, next one:
Problem: Return pIC50 for the following compound: COCCNC(=O)c1cccc(-c2ccc3sc(NC(=O)c4ccccc4)nc3c2)c1
Solution: 4.75

* * *

# assay_procedure: Half life in male Sprague-Dawley rat at 10 mg/kg, po measured upto 24 hrs by LC-MS/MS analysis
# Type: ADME, organism-based
# study_conditions: in vivo
property_label: half-life
State the value, then name its unit.

Problem: Return half-life for the following compound: CC(C)CCNC(=O)c1cccc(-c2ccc3sc(NC(=O)c4ccc(F)cc4)nc3c2)c1
Solution: 10 h

* * *

# Tested on: NCI-H1975
# assay_procedure: Antiproliferative activity against human NCI-H1975 cells assessed as inhibition of cell proliferation incubated for 72 hrs by MTT assay
# Format: functional, cell-based
# study_conditions: NCI-H1975, 72 h
pIC50: −log10 of the molar value.
property_label: pIC50

| structure_smiles | tested_target | pIC50 |
| --- | --- | --- |
| CCC(=O)Nc1nc2cc(-c3cccc(C(=O)NCC4CC4)c3)ccc2s1 | NCI-H1975 | < 4.40 |

Problem: Return pIC50 for the following molecule: CCCC(=O)Nc1nc2cc(-c3cccc(C(=O)NCCOC)c3)ccc2s1
Solution: < 4.40

Problem: Return pIC50 for the following molecule: CC(C)(C)C(=O)Nc1nc2cc(-c3cccc(C(=O)NCC4CC4)c3)ccc2s1
Solution: < 4.40

Problem: Return pIC50 for the following molecule: COc1ccc(CNC(=O)c2cccc(-c3ccc4sc(NC(=O)C(C)(C)C)nc4c3)c2)cc1
Solution: 4.91

Problem: Return pIC50 for the following molecule: COCOc1cc(OCOC)c2c(c1)O[C@@H](c1ccc(OC)cc1)CC2=O
Solution: 5.22

Problem: Return pIC50 for the following molecule: COCCNC(=O)c1cccc(-c2ccc3sc(NC(C)=O)nc3c2)c1
Solution: < 4.40
